Sourced from PubChem BioAssay AID2685

- TEST_METHOD_NOTES: qHTS Assay for Lipid Storage Modulators in Drosophila S3 Cells;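 also: cells counted by Cell Tracker Red CMTPX staining in the red channel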
- CONDITION_PARAMETERS: BODIPY lipid droplet fluorescence, 18-24 h, cells fed with added oleic acid; measured here: cell count max response
Among all 320,000 compounds or so, about 2,100 (0.66%) were called active. Not shown: some 53% with an inconclusive outcome. The full list was thinned out, with actives kept by preference.
What cell number change was measured for each of the following?
Write the answer as a number in %, unit excluded.

Item under review: COc1ccc(N(C(=O)CNC(=O)c2cccs2)C(C(=O)NC2CCCC2)c2cccnc2)cc1 (stereo not given) . Reported cell number change? 3.7

Endpoint output: cell number change of `O=C(COC(=O)c1ccccc1O)Nc1cccc(S(=O)(=O)N2CCCC2)c1` . Value? -0.622

Entry `COc1ccc(C2=NS(=O)(=O)N(C)C(C(=O)Nc3ccc(C(C)=O)cc3)=C2)cc1OC` has what cell number change? 3.67

What value of measured cell number change is listed for `Cc1ccc(O)c(NC(=O)C2=CC(c3cccs3)=NS(=O)(=O)N2C)c1` ? -6.05

Requested field: cell number change. Item: COc1ccc(C2CCCN2C(=O)Nc2ccc(Cl)cc2)cc1OC (stereo not given) -6.06

Suppose we examine the compound `O=C(NCc1nnc(SCC(=O)N2CCc3ccccc32)o1)c1cccs1` ; what cell number change value has been reported? -1.06

Item `COc1ccc(CNC(=O)C2=CC(c3ccc(OC)cc3)=NS(=O)(=O)N2C)cc1` has what recorded cell number change? -7.78

Item under review: `COc1ccc(NC(=O)C2=CC(c3ccc(C)cc3)=NS(=O)(=O)N2C)cc1OC` . Reported cell number change? -8.07

Given `Cc1ccc(C)c(OCCC(=O)OCC(=O)Nc2cccc(S(=O)(=O)N3CCCC3)c2)c1` , state its recorded cell number change. 13

Could you tell me which cell number change is on file for `CCc1ccc(NC(=O)C2=CC(c3ccc(OC)cc3)=NS(=O)(=O)N2C)cc1` ? -11.3

I am curious: what cell number change value has been reported for Cc1ccc(CCNC(=O)C2CCCN(S(=O)(=O)N3CC(C)CC(C)C3)C2)cc1 (stereo not given) ? -24.2

# query: cell number change of entry `COc1cc(NC(=O)C2=CC(c3ccc(C)cc3)=NS(=O)(=O)N2C)cc(OC)c1OC` -6.34

Using the record for `Cc1ccc(CNC(=O)c2ccc(N3CCC4(CC3)CC(c3cccc(Br)c3)=NO4)c(NC(=O)c3ccco3)c2)cc1` , report its cell number change. -15.2

Could you share which cell number change value was measured for COCCn1nnnc1C(c1ccccc1OC)N1CCN(c2ccccc2)CC1 (stereo not given) ? 8.57

// returns reported cell number change for input `Cc1cc(C)n2nc(C(=O)OCC(=O)Nc3ccc(F)cc3F)nc2n1` 11.7

Given the entry `COc1ccc(NC(=O)C2=CC(c3ccc(C)cc3)=NS(=O)(=O)N2C)cc1` , report its measured cell number change. 4.61

Record request: cell number change value, item `CCCNC(=O)c1ccc(N2CCC3(CC2)CC(c2cccc(Br)c2)=NO3)c(NC(=O)c2cccc(C)c2)c1` -6.01

Need cell number change, item `COc1ccccc1OCCC(=O)Nc1cccc(S(=O)(=O)N2CCCCC2)c1` 9.54

# input compound: `COc1ccc(CNC(=O)C2=CC(c3ccc(OC)c(OC)c3)=NS(=O)(=O)N2C)cc1` ; wanted: its cell number change -8.36

For the compound shown here, `O=C(CCOc1ccccc1)Nc1ccc(S(=O)(=O)N2CCCC2)cc1` , give the reported cell number change. -12

###

Please provide measured cell number change for the entries that follow.
- TEST_METHOD_NOTES: qHTS Assay for Lipid Storage Modulators in Drosophila S3 Cells;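 also: cells counted by Cell Tracker Red CMTPX staining in the red channel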
- CONDITION_PARAMETERS: BODIPY lipid droplet fluorescence, 18-24 h, cells fed with added oleic acid; measured here: cell count max response
The campaign covered roughly 320,000 compounds. About 2,100 (0.66%) were called active. Not shown: some 53% with an inconclusive outcome. The list comes from a sample in which actives are over-represented; it also holds close analogues and randomly drawn compounds.
Report the figure in % without appending any unit label.

Give its cell number change value. Item: `CCOC(=O)N1CCN(c2ncc(C(F)(F)F)cc2Cl)CC1` 23.9

What cell number change value was documented for this molecule, Cc1ccc2[nH]c3c(c2c1)CCN1C(=O)OC(C)(C)C31C (stereo unspecified) ? -17.1

I have this molecule here, `CCOc1ccccc1CNC(=O)CCCn1ncn2c(cc3occc32)c1=O` , and I need its recorded cell number change. -5.42

Look at this molecule and give its reported cell number change. `COc1cccc(CNC(=O)CCCn2ncn3c(cc4occc43)c2=O)c1` -2.59

May I ask what cell number change has been recorded for CC1(OC(=O)C2CCCC2)C(=O)C=C2C=C(c3ccsc3)N(CCCCO)C=C2C1=O (stereo unspecified) ? -2.75

Quick one: cell number change of Cc1ccc(NC(=S)NC(C)CCc2ccccc2)cc1C (stereo unspecified) ? 23.4

###

Kindly state cell number change for each of the entries shown.
- TEST_METHOD_NOTES: qHTS Assay for Lipid Storage Modulators in Drosophila S3 Cells;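 also: cells counted by Cell Tracker Red CMTPX staining in the red channel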
- CONDITION_PARAMETERS: BODIPY lipid droplet fluorescence, 18-24 h, cells fed with added oleic acid; measured here: cell count max response
In all, about 320,000 compounds went through this assay and about 2,100 (0.66%) were called active. Roughly 53% stayed inconclusive and do not appear here. For the sample, actives were picked, then their nearest neighbours and some compounds at random.
State the answer as a number, implicitly in %.

Fill blank: measured cell number change of the molecule CNC(=O)C1CC(=O)N(c2ccc(F)c(Cl)c2)C1 (stereo unspecified) is ____. 9.35

Endpoint output: cell number change of `COCc1nnc(NC(=O)CSc2ccccc2)s1` . Value? -1.84

Need cell number change of COc1ccccc1C(CNC(=O)c1cc(C)nc2ccccc12)N(C)C (stereo unspecified) , thanks. 9.21

# query: cell number change of entry `COc1ccc(CCNC(=O)c2cc(-c3ccccc3O)n[nH]2)cc1OC` 4.36

I have this molecule here, `CCOC(=O)c1c2ccccc2[n+]([O-])n1CCO` , and I need its recorded cell number change. -10.4

Fill in: cell number change of Cc1cc(Br)ccc1NC(=O)C(C)c1ccc([N+](=O)[O-])cc1 (stereo unspecified) is ___ 6.98

###

- TEST_METHOD_NOTES: qHTS Assay for Lipid Storage Modulators in Drosophila S3 Cells;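 also: cells counted by Cell Tracker Red CMTPX staining in the red channel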
- CONDITION_PARAMETERS: BODIPY lipid droplet fluorescence, 18-24 h, cells fed with added oleic acid; measured here: cell count max response
Among all 320,000 compounds or so, about 2,100 (0.66%) were called active. Roughly 53% stayed inconclusive and do not appear here. The full list was thinned out, with actives kept by preference.
Field: cell number change. Provide a value for each of the compounds that follow.
Write it as a number; the unit % goes unstated.

Give its cell number change value. Item: `CCN1C(=O)[C@H]2[C@@H](c3ccc(C)cc3)N3C(=O)N(c4ccc(C(F)(F)F)cc4)C(=O)[C@@]3(CC)[C@H]2C1=O` -7.19

Return reported cell number change; argument: `COc1ccc([C@@H]2[C@@H]3C(=O)N(C(C)(C)C)C(=O)[C@@H]3[C@]3(CC(C)C)C(=O)N(c4ccc(C(F)(F)F)cc4)C(=O)N23)cc1` 18.1

For `CC1=NOC(=O)/C1=C/c1ccc(N(C)C)cc1` , what is its reported cell number change? -16.6

What measured cell number change goes with `CCN1C(=O)[C@H]2[C@@H](c3ccc(C)cc3)N3C(=O)N(c4ccc(C(F)(F)F)cc4)C(=O)[C@@]3(CC(C)C)[C@H]2C1=O` ? 11.1

Value lookup for cell number change; key = `COc1ccc([C@@H]2[C@@H]3C(=O)N(C(C)(C)C)C(=O)[C@@H]3[C@]3(C)C(=O)N(c4ccc(C(F)(F)F)cc4)C(=O)N23)cc1` 14.7

Query: cell number change; subject: CCN(CC)c1ccc(C=C2C(=O)OC(c3ccccc3)OC2=O)cc1 (configuration not stated) 18.7

Sample `CCN1C(=O)[C@H]2[C@@H](c3ccc(C)cc3)N3C(=O)N(c4ccccc4)C(=O)[C@@]3(CC)[C@H]2C1=O` — what was its cell number change? 16.2

###

- TEST_METHOD_NOTES: qHTS Assay for Lipid Storage Modulators in Drosophila S3 Cells;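 also: cells counted by Cell Tracker Red CMTPX staining in the red channel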
- CONDITION_PARAMETERS: BODIPY lipid droplet fluorescence, 18-24 h, cells fed with added oleic acid; measured here: cell count max response
- Source text: NIH Molecular Libraries Probe Production Centers Network [MLPCN] NIH Chemical Genomics Center [NCGC] […] Triacsin C (Sigma-Aldrich T-4540), an inhibitor of long-chain fatty acyl CoA synthetase that blocks synthesis of triglycerides, was used as a positive control for lipid under-storage. […] Fluorescence was detected by excitation of the fluorophores with a 488-nm laser on an Acumen Explorer (TTP Lab Tech). […] Cells were detected using channel 3 (575-640 nm) with 5-um width and 100-um depth filters. […]
Out of some 320,000 compounds screened, about 2,100 (0.66%) were called active. Not shown: some 53% with an inconclusive outcome. This excerpt belongs to a sample that is enriched for actives.
OBSERVABLE: cell number change (%)
The response must be a number in % with no trailing unit.

Entry `O=C(O)c1ccc(N=Nc2c(O)[nH]c3ccc(Br)cc23)cc1` : reported cell number change = ? 13.1

Please report the recorded cell number change for `Cc1ccc2[nH]c(O)c(N=NC(N)=S)c2c1` . 9.04

Any idea what cell number change was measured for CN(C)C(CNC(=O)c1ccc(S(=O)(=O)Nc2ccccc2)cc1)c1ccco1 (stereo not given) ? 14.1

Give the measured cell number change of `O=C(Nc1ccc(N2CCN(C(=O)c3ccco3)CC2)cc1)c1ccco1` . 25.3

For the compound shown here, `O=C(COc1ccccc1)Nc1ccc(N2CCN(C(=O)c3ccco3)CC2)cc1` , give the reported cell number change. 11.5

cell number change for c1ccc(-c2csc3ncnc(NCC4COc5ccccc5O4)c23)cc1 (stereo not given) ? -33.8

Looking for the measured cell number change of `c1ccc(-c2csc3ncnc(NCc4ccccn4)c23)cc1` , can you help? -13.1

Any idea what cell number change was measured for Cc1ccc(S(=O)(=O)N(C)c2ccc(C(=O)NCC(c3ccco3)N(C)C)cc2)cc1 (stereo not given) ? -16.7

Entry under review: `O=C(COc1ccc([N+](=O)[O-])cc1)Nc1ccc(N2CCN(C(=O)c3ccco3)CC2)cc1` . Reported cell number change? -6.49

Looking for the measured cell number change of `CC(C)(C)OC(=O)N1CCN(c2ccc(NC(=O)c3ccco3)cc2)CC1` , can you help? 4.03
